method notes: Inhibition of Escherichia coli MurD after 15 mins by malachite green assay
observation type: pIC50
Please express pIC50 as -log10 of the molar concentration.

(Q) Returns the measured pIC50 for the input molecule. Input: O=C(O)c1cc(C(=O)O)cc(-c2ccc(/C=C3/SC(=S)N(c4ccc5c(c4)OCO5)C3=O)o2)c1
(A) 3.57

---

The following compounds are shown together with reported Activity values.
Tested on: Escherichia coli
method notes: Inhibition of Escherichia coli MurD assessed as residual activity at 100 uM after 15 mins by malachite green assay
Reply with just the number (in %).

Reference set (8 entries):
1. CCOc1ccc2[nH]c(SCC(=O)Nc3cc(C(=O)O)cc(C(=O)O)c3)nc2c1 :: 89
2. CCc1ccccc1N1C(=O)/C(=C\c2cc(C)n(-c3cc(C(=O)O)cc(C(=O)O)c3)c2C)C(=O)NC1=S :: 92
3. Cc1cc(C=C2C(=O)NC(=S)NC2=O)c(C)n1-c1cc(C(=O)O)cc(C(=O)O)c1 :: 99
4. Cc1cc(/C=C2/C(=O)NC(=S)N(c3cccc(Cl)c3Cl)C2=O)c(C)n1-c1cc(C(=O)O)cc(C(=O)O)c1 :: 83
5. COc1ccc(-c2ccc(/C=C3\SC(=S)N(C(CCC(=O)O)C(=O)O)C3=O)o2)c([N+](=O)[O-])c1 (stereo unspecified) :: 87
6. CCOc1ccc2nc(SCC(=O)Nc3cc(C(=O)O)cc(C(=O)O)c3)sc2c1 :: 98
7. Cc1cc(/C=C2/C(=O)NC(=S)N(c3cccc(Cl)c3)C2=O)c(C)n1-c1cc(C(=O)O)cc(C(=O)O)c1 :: 90
8. Cc1cc(/C=C2/C(=O)NC(=S)N(c3ccc(Cl)cc3)C2=O)c(C)n1-c1cc(C(=O)O)cc(C(=O)O)c1 :: 69

(Q) Returns the measured Activity for the input compound. Input: O=C(CSc1nc2ccccc2s1)Nc1cc(C(=O)O)cc(C(=O)O)c1
(A) 97

(Q) Returns the measured Activity for the input compound. Input: O=C(O)CCC(C(=O)O)N1C(=O)/C(=C/c2ccc(-c3ccc([N+](=O)[O-])cc3)o2)SC1=S (stereo unspecified)
(A) 74

(Q) Returns the measured Activity for the input compound. Input: COc1cccc(/C=C2\SC(=S)N(C(CCC(=O)O)C(=O)O)C2=O)c1 (stereo unspecified)
(A) 98

---

System: Escherichia coli
method notes: Inhibition of Escherichia coli MurE assessed as residual activity at 100 uM after 15 mins by malachite green assay
observation type: Activity (%)
Reply with just the number (in %).

Reference set (6 entries):
1. CCOc1ccc2nc(SCC(=O)Nc3cc(C(=O)O)cc(C(=O)O)c3)sc2c1 :: 84
2. CCOc1ccc2[nH]c(SCC(=O)Nc3cc(C(=O)O)cc(C(=O)O)c3)nc2c1 :: 95
3. COc1ccc(-c2ccc(/C=C3\SC(=S)N(C(CCC(=O)O)C(=O)O)C3=O)o2)c([N+](=O)[O-])c1 (configuration not stated) :: 70
4. COc1cccc(/C=C2\SC(=S)N(C(CCC(=O)O)C(=O)O)C2=O)c1 (configuration not stated) :: 89
5. CCc1ccccc1N1C(=O)/C(=C\c2cc(C)n(-c3cc(C(=O)O)cc(C(=O)O)c3)c2C)C(=O)NC1=S :: 55
6. O=C(CSc1nc2ccccc2s1)Nc1cc(C(=O)O)cc(C(=O)O)c1 :: 94

(Q) Returns the measured Activity for the input compound. Input: Cc1cc(C=C2C(=O)NC(=S)NC2=O)c(C)n1-c1cc(C(=O)O)cc(C(=O)O)c1
(A) 76
